Molecular target: Msn1 (UniProt P22148)
Sequence: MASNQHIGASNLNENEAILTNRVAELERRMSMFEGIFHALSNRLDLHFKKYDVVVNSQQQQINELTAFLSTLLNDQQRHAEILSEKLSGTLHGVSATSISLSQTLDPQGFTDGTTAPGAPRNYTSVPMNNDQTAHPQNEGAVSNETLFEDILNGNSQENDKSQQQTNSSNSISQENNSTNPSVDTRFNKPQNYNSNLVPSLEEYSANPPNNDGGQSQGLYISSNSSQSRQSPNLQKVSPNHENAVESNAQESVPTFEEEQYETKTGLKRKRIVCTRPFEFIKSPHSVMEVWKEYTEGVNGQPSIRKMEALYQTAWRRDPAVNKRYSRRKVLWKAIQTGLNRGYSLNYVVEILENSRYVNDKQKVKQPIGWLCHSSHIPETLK
Assay: PBM E-score (8-mer binding enrichment) (E-score (-0.5 to 0.5)); higher = stronger / more preferred TF binding
Conditions: protein concentration: 200 nM; construct: GST-full length
Over roughly 33,000 sequences, “E-score (-0.5 to 0.5)” has its median near -0.013; the highest 2% begin near 0.3. The list comes from a sample in which the highest values are over-represented; it also holds close analogues and randomly drawn sequences.
Rule: PBM E-score of 0.2 or more gives yes (1); anything lower gives no (0).

Record excerpt, results attached:
ACAAGTCC : yes (1)
ACATTAAG : yes (1)
ACATTTAA : yes (1)
ATCCCACA : no (0)
GTCCCACA : yes (1)
GGGACACC : no (0)
CTGAGACC : no (0)
ACATTTGA : yes (1)
GTAGGACA : yes (1)
GTGAGACA : yes (1)

Evaluate ACGAGACA : PBM E-score at minimum 0.2?
yes (1)

Evaluate GACCGTGA : PBM E-score at minimum 0.2?
no (0)

Evaluate ATTTTGTC : PBM E-score at minimum 0.2?
yes (1)

* * *

Target: Msn1 (UniProt P22148)
Sequence: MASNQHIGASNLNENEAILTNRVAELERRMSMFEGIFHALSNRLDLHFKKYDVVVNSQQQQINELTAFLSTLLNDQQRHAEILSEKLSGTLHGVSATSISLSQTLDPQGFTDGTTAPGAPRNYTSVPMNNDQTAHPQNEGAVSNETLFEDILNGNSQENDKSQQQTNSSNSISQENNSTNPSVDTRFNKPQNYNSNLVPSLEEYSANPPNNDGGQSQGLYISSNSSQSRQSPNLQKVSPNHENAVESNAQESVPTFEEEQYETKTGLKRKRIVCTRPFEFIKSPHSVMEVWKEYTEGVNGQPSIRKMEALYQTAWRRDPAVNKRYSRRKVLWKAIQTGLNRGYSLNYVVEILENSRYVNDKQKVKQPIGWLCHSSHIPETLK
Assay: PBM E-score (8-mer binding enrichment) (E-score (-0.5 to 0.5)); higher = stronger / more preferred TF binding
Details: protein concentration: 200 nM; construct: GST-full length
In all, about 33,000 sequences were measured (“E-score (-0.5 to 0.5)”: median about -0.013, highest 2% from about 0.3 on). Many of the other results were omitted from the sample, so the highest values are more common in it than they were.
reportedMetric: PBM E-score
Give bare numbers.

CGGGACAA : 0.463
CGGGACAC : 0.376
CGGGACTC : 0.0112
AGGGACCT : -0.0323
ATGCGACG : -0.249
CATAGTAG : 0.0607

For each of the items listed, what is its PBM E-score?
1. ACGACAAT
2. AGAATGTG
3. AGGACAAG
4. CTGAGCGA
5. AGGGACGA
6. CGGGACAG
7. CGAATGAC
8. AGGGACAT

[0.24, -0.172, 0.472, 0.0585, 0.261, 0.197, 0.258, 0.488]

For each of the items listed, what is its PBM E-score?
1. AGGACAAC
2. AGGGACCA
3. GCCTTCGC
4. AGGGACGG
5. AGAATGTC

1: 0.436; 2: -0.188; 3: -0.098; 4: -0.35; 5: 0.459

* * *

Please respond with reported PBM E-score for every item in the list.
Biological target: Msn1 (UniProt P22148)
Sequence: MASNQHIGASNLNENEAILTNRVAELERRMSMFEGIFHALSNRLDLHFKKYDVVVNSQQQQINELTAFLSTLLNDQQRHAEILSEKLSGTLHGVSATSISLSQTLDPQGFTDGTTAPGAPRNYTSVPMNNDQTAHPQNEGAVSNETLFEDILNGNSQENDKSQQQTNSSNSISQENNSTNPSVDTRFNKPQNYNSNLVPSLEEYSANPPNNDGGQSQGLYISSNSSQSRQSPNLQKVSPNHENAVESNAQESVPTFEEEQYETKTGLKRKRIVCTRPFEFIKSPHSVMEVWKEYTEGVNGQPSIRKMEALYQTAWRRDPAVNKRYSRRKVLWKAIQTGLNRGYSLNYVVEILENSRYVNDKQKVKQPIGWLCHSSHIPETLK
Assay: PBM E-score (8-mer binding enrichment) (E-score (-0.5 to 0.5)); higher = stronger / more preferred TF binding
Conditions: protein concentration: 200 nM; construct: GST-full length
In all, about 33,000 sequences were measured (“E-score (-0.5 to 0.5)”: median about -0.013, highest 2% from about 0.3 on). Only a selection was taken, and the highest values are over-represented in it overall.

Would you please look over these solved cases?
ATTTAATA : 0.336
GCCCGCAA : -0.0655
GTTTAATA : 0.315
ACCGGTAA : -0.0138
GTTTAAAA : 0.0898
ATCCGAAA : 0.057
AACAAACA : 0.133
CACAAAAC : 0.0522

For each of the items listed, what is its PBM E-score?
1. ATCGACCC
2. ATTTACTA
3. AAGGGCAG
4. AATGTCAT
5. CACATTTA
6. CTATCGCA

1: -0.11; 2: 0.206; 3: -0.102; 4: 0.46; 5: 0.15; 6: -0.201

For each of the items listed, what is its PBM E-score?
1. CTGTACAA
2. AACATTTA
3. CACATTCA
4. GTGAGGCA
5. CAAGAAAG
6. TATGGAAA

1. 0.161
2. 0.252
3. -0.0795
4. -0.0279
5. 0.0067
6. 0.071

For each of the items listed, what is its PBM E-score?
1. ATCACAGC
2. TACTAATA
3. GTTGACAA
4. CACAAACC
5. ATAGCATG
6. GAAGTAGC
7. GACATTTA
8. CATGGACA

[0.053, 0.0704, 0.269, -0.135, -0.207, -0.206, 0.474, 0.47]

For each of the items listed, what is its PBM E-score?
1. CCTGACAA
2. AACTAATA

0.202
0.326

For each of the items listed, what is its PBM E-score?
1. CAATGAAA
2. AACCACGT
3. AGTGTCAT
4. GGTGACAC
5. AATGTCAG
6. CGTGACAG
7. CCAGCGGC
8. AATTAATT

[0.0415, -0.0931, 0.112, -0.0303, 0.254, 0.0649, -0.0286, 0.168]

For each of the items listed, what is its PBM E-score?
1. ACCAGTCA
2. TATGGACA
3. TACACAAA
4. GATGGACC

-0.0816
0.476
0.205
0.0221

For each of the items listed, what is its PBM E-score?
1. TAGCAAAA
2. TGTGACAA
3. TAATGAAA
4. CACACAAA
5. AGGGGGCC
6. TCTGACAA
7. AGTGACAA

1: 0.124; 2: 0.377; 3: 0.226; 4: 0.115; 5: -0.412; 6: 0.198; 7: 0.302

For each of the items listed, what is its PBM E-score?
1. GACAAAAC
2. TATTAATA
3. AACAAAAC
4. GACATTAC
5. CCACCCAG
6. ACTTTTGA
7. CTAGCGCA
8. CTGTACAG

[0.451, -0.134, 0.199, 0.442, -0.0137, 0.208, -0.153, 0.0843]

* * *

Target: Msn1 (UniProt P22148)
Sequence: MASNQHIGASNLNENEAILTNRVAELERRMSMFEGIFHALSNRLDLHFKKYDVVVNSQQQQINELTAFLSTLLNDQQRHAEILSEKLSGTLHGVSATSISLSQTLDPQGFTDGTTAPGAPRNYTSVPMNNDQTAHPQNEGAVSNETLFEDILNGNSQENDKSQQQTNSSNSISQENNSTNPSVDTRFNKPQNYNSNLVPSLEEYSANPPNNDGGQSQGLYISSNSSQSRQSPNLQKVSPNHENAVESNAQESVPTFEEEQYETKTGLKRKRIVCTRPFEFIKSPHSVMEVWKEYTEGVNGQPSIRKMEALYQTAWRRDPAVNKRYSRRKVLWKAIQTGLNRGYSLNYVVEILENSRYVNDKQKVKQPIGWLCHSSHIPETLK
Assay: PBM E-score (8-mer binding enrichment) (E-score (-0.5 to 0.5)); higher = stronger / more preferred TF binding
Conditions: protein concentration: 200 nM; construct: GST-full length
Over roughly 33,000 sequences, “E-score (-0.5 to 0.5)” has its median near -0.013; the highest 2% begin near 0.3. The list comes from a sample in which the highest values are over-represented; it also holds close analogues and randomly drawn sequences.
Rule: PBM E-score of 0.2 or more gives Condition met; anything lower gives Condition not met.

Record excerpt, results attached:
ATATGGAC : Condition met
AGTAGGCA : Condition not met
CATAGATA : Condition not met

Evaluate GTAAAGTA : PBM E-score at minimum 0.2?
Condition not met

Evaluate ACCCTGAG : PBM E-score at minimum 0.2?
Condition not met

Evaluate GTGACAAA : PBM E-score at minimum 0.2?
Condition met

Evaluate TGGCCCAA : PBM E-score at minimum 0.2?
Condition not met

Evaluate AATGTCGG : PBM E-score at minimum 0.2?
Condition met

Evaluate AAGCGAGA : PBM E-score at minimum 0.2?
Condition not met

Evaluate AAAATCTG : PBM E-score at minimum 0.2?
Condition not met

Evaluate AATGTCGC : PBM E-score at minimum 0.2?
Condition met

Evaluate CTCGCCCC : PBM E-score at minimum 0.2?
Condition not met

Evaluate ACAGACGA : PBM E-score at minimum 0.2?
Condition not met

Evaluate GACTCATC : PBM E-score at minimum 0.2?
Condition not met

Evaluate ACAGACAC : PBM E-score at minimum 0.2?
Condition met

Evaluate AAGACAAC : PBM E-score at minimum 0.2?
Condition met

Evaluate ATCCTAAC : PBM E-score at minimum 0.2?
Condition not met

Evaluate GCATGGAC : PBM E-score at minimum 0.2?
Condition met

Data provenance is the supplement of paper PMC3334620.
